- target_system: Probable G-protein coupled receptor 139 (Homo sapiens)
- measurement_description: Agonist activity at human GPR139 expressed in CHO-K1 cells assessed as induction of beta-arrestin 2 recruitment incubated for 90 mins by PathHunter assay
- Type: cell-based
- study_conditions: cho-k1
pEC50: −log10 of the molar value.
measured_attribute: pEC50

Example results:
{"compound": "Cc1ccc2nn(CC(=O)N[C@@H](C)c3ccc(Cl)cc3)c(=O)n2n1", "reported_measurement": 9.00}
{"compound": "C[C@H](NC(=O)Cn1nc2ccc(C#N)cn2c1=O)c1ccc(Cl)c(F)c1", "reported_measurement": 9.00}
{"compound": "COc1ccn2c(=O)n(CC(=O)N[C@@H](C)c3ccc(OC(F)(F)F)cc3)nc2c1", "reported_measurement": 9.00}
{"compound": "C[C@H](NC(=O)Cn1nc2ccc(F)cn2c1=O)c1ccc(Cl)cc1", "reported_measurement": 9.00}
{"compound": "C[C@H](NC(=O)[C@@H](C)n1nc2ncccn2c1=O)c1ccc(Cl)c(F)c1", "reported_measurement": 8.00}
{"compound": "C[C@H](NC(=O)Cn1nc2c(N3CCC34CN(C)C4)cccn2c1=O)c1ccc(Cl)c(F)c1", "reported_measurement": 8.00}
{"compound": "COc1ccn2c(=O)n(CC(=O)N[C@@H](C)c3ccc(Cl)c(F)c3)nc2n1", "reported_measurement": 9.00}
{"compound": "C[C@H](NC(=O)Cn1nc2cc(Cl)ccn2c1=O)c1ccc(Cl)c(F)c1", "reported_measurement": 9.00}
{"compound": "CC(C(=O)N[C@@H](C)c1ccc(Cl)c(F)c1)n1nc2ccccn2c1=O (stereo in doubt; form 2)", "reported_measurement": 8.00}
{"compound": "Cc1ccc([C@H](C)NC(=O)Cn2nc3cccnn3c2=O)cc1F", "reported_measurement": 8.00}

(1) C[C@H](NC(=O)Cn1nc2cc(C3CC3)cnn2c1=O)c1ccc(Cl)c(F)c1
(2) COc1ccn2c(=O)n(CC(=O)N[C@@H](C)c3c(C)cc(C)cc3C)nc2c1
[in] Hello, I am sorting some records. Could you say if 1 or 2 has the smaller pEC50 value? Respond with the label that goes with your answer.
[out] 2

(P) COc1ccn2c(=O)n(CC(=O)N[C@@H](C)c3ccc(C)cc3)nc2c1
(Q) C[C@H](NC(=O)Cn1nc2ccc(Cl)nn2c1=O)c1ccc(OC(F)(F)F)cc1
[in] Hello, I am sorting some records. Could you say if P or Q has the smaller pEC50 value? Respond with the label that goes with your answer.
[out] Q

====

Below is a list of entries, each paired with its recorded Emax value.
- target_system: Probable G-protein coupled receptor 139 (Homo sapiens) (UniProt Q6DWJ6)
- Sequence (Q6DWJ6 whole entry): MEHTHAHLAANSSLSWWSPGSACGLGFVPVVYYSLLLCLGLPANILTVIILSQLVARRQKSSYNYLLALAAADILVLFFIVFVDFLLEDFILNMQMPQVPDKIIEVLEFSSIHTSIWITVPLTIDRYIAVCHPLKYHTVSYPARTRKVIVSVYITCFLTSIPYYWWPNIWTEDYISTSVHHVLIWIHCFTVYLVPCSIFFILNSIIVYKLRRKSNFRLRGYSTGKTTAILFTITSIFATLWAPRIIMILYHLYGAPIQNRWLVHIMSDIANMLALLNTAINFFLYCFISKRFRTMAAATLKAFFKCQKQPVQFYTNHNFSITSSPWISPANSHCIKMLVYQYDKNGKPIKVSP
- measurement_description: Agonist activity at human GPR139 expressed in CHO-K1 cells assessed as increase in calcium flux by calcium 5 dye based FLIPR assay relative to JNJ63533054
- Type: functional, cell-based
- study_conditions: filed as agonist

Example results:
{"smiles_record": "Cc1ccnc2nn(CC(=O)N[C@@H](C)c3ccc(OC(F)(F)F)cc3)c(=O)n12", "Emax": "50%"}
{"smiles_record": "C[C@H](NC(=O)Cn1nc2c(N3CCCCC3)nccn2c1=O)c1ccc(Cl)c(F)c1", "Emax": "> 80%"}

Now, please, on to the next molecule.
[in] Reported Emax, molecule Cc1cc(C)n2c(=O)n(CC(=O)N[C@@H](C)c3ccc(Cl)cc3)nc2n1 : ____
[out] 50%
